ASSAY REMARKS: Apparent pH of solvent systems before API addition and of saturated supernatant
Type: physicochemical
DETAILS: SSNA01 with 3.50% w/w of the named base, before API addition
ASSAY METRIC: Vehicle pH

| COMPOUND | Vehicle pH |
| --- | --- |
| CC(O)CNCC(C)O (stereo not shown) [Diisopropanolamine] | 9.89 |
| OCCNCCO [Diethanolamine] | 10.30 |
| CC(C)(N)CO [2-Amino-2-methyl-1-propanol] | 10.45 |
| CCC(N)(CO)CO [2-Amino-2-ethyl-1,3-propanediol] | 10.27 |

###

ASSAY REMARKS: Apparent pH of solvent systems before API addition and of saturated supernatant
Type: physicochemical
DETAILS: SSCR01 with 3.50% w/w of the named base, saturated with ruxolitinib phosphate
ASSAY METRIC: Supernatant pH

| COMPOUND | Supernatant pH |
| --- | --- |
| NC(CO)(CO)CO [Tris] | 3.45 |
| CC(O)CNCC(C)O (stereo not shown) [Diisopropanolamine] | 3.49 |
| CCC(N)(CO)CO [2-Amino-2-ethyl-1,3-propanediol] | 3.29 |
| CC(C)(N)CO [2-Amino-2-methyl-1-propanol] | 3.61 |

Just for reference, patent US20260199359A1 is where these values come from.
